- System: hCMV glycoprotein B (gB; HEK293T transfectant) (hCMV, UniProt P06473 32-906)
- Sequence (P06473 32-906 limits assumed): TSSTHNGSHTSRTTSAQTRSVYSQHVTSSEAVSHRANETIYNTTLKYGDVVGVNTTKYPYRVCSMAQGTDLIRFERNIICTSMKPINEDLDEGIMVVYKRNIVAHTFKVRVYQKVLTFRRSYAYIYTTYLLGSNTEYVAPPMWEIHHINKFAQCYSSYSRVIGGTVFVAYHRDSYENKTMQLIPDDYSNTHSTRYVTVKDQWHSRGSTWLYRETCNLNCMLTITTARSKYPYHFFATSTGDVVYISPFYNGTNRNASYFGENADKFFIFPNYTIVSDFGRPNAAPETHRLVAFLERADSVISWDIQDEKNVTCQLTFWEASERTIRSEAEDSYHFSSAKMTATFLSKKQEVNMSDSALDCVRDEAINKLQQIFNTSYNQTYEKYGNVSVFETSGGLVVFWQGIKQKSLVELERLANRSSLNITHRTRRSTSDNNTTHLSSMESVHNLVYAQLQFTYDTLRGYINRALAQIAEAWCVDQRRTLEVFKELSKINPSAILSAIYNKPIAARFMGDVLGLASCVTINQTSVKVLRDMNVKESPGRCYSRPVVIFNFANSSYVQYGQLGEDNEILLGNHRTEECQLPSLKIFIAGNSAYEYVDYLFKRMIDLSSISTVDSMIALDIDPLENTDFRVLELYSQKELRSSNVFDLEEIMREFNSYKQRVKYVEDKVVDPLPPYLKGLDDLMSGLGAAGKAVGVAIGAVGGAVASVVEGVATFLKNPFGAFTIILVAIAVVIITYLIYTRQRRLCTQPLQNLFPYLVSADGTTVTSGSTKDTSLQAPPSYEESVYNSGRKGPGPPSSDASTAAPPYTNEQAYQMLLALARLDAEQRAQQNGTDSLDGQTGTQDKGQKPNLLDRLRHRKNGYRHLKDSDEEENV
- Protocol: cell-based or functional assay
Assay Endpoint: 50% neutralization VR1814, BM-MSC (µg/mL)
Express the result in µg/mL but write the number alone.

{"Binder": "6B4 (antibody, V domains shown, human IgG; also called 6B4-biotin) VH: QVQLVESGGGVVQPGRSLRLSCAASGFRFNEFNMHWVRQAPGKGLEWVAVISIDGRHKYNADSVEGRFTISRDNSRNTLYLQMNSLRVEDTALYYCVTDGKAVDGFSGILEFWGQGTPVTVST VL: EIVLTQSPATLSLSPGERATLSCWASQSVGGYLAWYQQKPGQAPRLLIYDASIRATGIPARFSGSGSGTHFTLTINSLEPEDFAVYYCQQRNNWPPLTFGGGTKVEIK", "Measurement Unit": "µg/mL", "50% neutralization VR1814, BM-MSC": 2}
{"Binder": "10C6 (antibody, V domains shown, human IgG; also called 10C6-biotin; 1006) VH: AVQLVESGGGLAQPGRSLRLSCKVSGFSFSNFEMNWVRQAPGKGLEWIAYIDFTGSTIYYSDSVKGRFTISRDTARNSLYLQMNKLRVEDTAVYYCVRDAGRWGTSWYYFDYWGQGTLVTVSS VL: QSVLTQPPSVSGAPGQRVTISCTGLSSNIGAGYDIHWYQQIPGKAPKLLIYGNNNRPSGVPDRFSGSKSGTSVSLAITGLQAEDEADYYCQSYDSSLNGWVFGGGTRLTVL", "Measurement Unit": "µg/mL", "50% neutralization VR1814, BM-MSC": 0.3}
{"Binder": "5F1 (antibody, V domains shown, human IgG; also called 5F1-biotin) VH: AVQLVESGGGLAQPGRSLRLSCKVSGFTFSSYEMNWVRQAPGKGLEWIAYIDFTGSTIYYADSVKGRFTISRDTARNSLYLQMNKLRVEDTAVYYCVRDAGRWGTSWYYFDYWGQGTLVTVSS VL: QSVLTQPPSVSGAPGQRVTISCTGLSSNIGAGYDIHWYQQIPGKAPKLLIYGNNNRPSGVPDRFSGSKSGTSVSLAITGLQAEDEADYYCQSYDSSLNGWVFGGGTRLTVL", "Measurement Unit": "µg/mL", "50% neutralization VR1814, BM-MSC": 0.3}

Attention now shifts to the item below.
In: Using known records, supply 50% neutralization VR1814, BM-MSC for 7H3 (antibody, V domains shown, fully human IgG1 with unaltered Fc; also called 7H3-biotin; LJP538) VH: QVQLVQSGAEVKNPGASVKVSCKASGYTFTDYYIHWVRQAPGQGLEWMGWFNPNSGGTNFVQNFQGRVTMTRDTSISTAYMELSRLRSDDTAMYYCAKDSAKTASAYYGLNFFYYGMDVWGQGTTVTVSS VL: QSVLSQPPSASGTPGQRVTISCSGSSSNIGKNYVYWYQQVPGTAPKLLMFKNNQRPSGVPDRFSGSKSGTSASLAISGLRSEDEADYYCSAWDGSLSRPLFGGGTKVTVL
Out: 2
